From: the supplement of paper PMC6555819

Catalogue of sequences with associated PBM binding z-score
tested on: PPARg:RXRa IVT, anti-PPARg (NR concentration 270 nM, RXRa partner concentration 90 nM); assay: PBM binding z-score (relative to random genomic background probes); higher = stronger binding; sequences stand for … in GC…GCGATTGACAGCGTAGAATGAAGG
reported-endpoint: PBM binding z-score

seq_string=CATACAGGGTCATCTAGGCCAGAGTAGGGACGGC reported_endpoint="PBM binding z-score" observed_measurement=3.92
seq_string=CGAACTGGGTCAAAGGACAGTGAAAGGCGACGTA reported_endpoint="PBM binding z-score" observed_measurement=7.89
seq_string=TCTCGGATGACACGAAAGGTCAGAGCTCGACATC reported_endpoint="PBM binding z-score" observed_measurement=1.33
seq_string=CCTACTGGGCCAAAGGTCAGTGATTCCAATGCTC reported_endpoint="PBM binding z-score" observed_measurement=6.5
seq_string=CCTAGTTGGTCAAGGTCCCACACGCTATAGGTAC reported_endpoint="PBM binding z-score" observed_measurement=1.17
seq_string=CCTAGTGGGTCAGGAGGTCACACACCGGATATGA reported_endpoint="PBM binding z-score" observed_measurement=7.22
seq_string=CTATGTAAGTTAAGGGGGTCATTCAGTTTGAAAG reported_endpoint="PBM binding z-score" observed_measurement=5.22
seq_string=CCTAGTAGGTTACGAGGGGGCATTCAGTGCGAAT reported_endpoint="PBM binding z-score" observed_measurement=6.3
seq_string=CGTCCAAGGTCAAAGGTCACTGAAGAGATGACGG reported_endpoint="PBM binding z-score" observed_measurement=6.37
seq_string=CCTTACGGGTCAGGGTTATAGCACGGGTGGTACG reported_endpoint="PBM binding z-score" observed_measurement=2.22
seq_string=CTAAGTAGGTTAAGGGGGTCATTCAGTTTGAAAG reported_endpoint="PBM binding z-score" observed_measurement=7.65
seq_string=AAAATGAGGTTAAGATCAGGGAAACAGAATACAT reported_endpoint="PBM binding z-score" observed_measurement=3.78
seq_string=CCGAGTAGGTTACGATGGGGCATTCAGTGCGAAT reported_endpoint="PBM binding z-score" observed_measurement=3.03
seq_string=GATACAGGGTGAGCTAGAGGCCAGAGTATGGAAA reported_endpoint="PBM binding z-score" observed_measurement=0.614
seq_string=GATACAGGGTGAAGGCCAGAGTACGCGTATTGAT reported_endpoint="PBM binding z-score" observed_measurement=1.34
seq_string=CGAACTAGGTCAAAGGTCAGTGAAAGGCGACGTA reported_endpoint="PBM binding z-score" observed_measurement=9.1
seq_string=CTATGTAGGTTAAGGGGGTCGTTCAGTTTGAAAG reported_endpoint="PBM binding z-score" observed_measurement=7.3
seq_string=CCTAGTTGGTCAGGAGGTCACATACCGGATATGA reported_endpoint="PBM binding z-score" observed_measurement=3.39
seq_string=CTTAGTTGGTCAGGAGGTCACACACCGGATATGA reported_endpoint="PBM binding z-score" observed_measurement=4.3
seq_string=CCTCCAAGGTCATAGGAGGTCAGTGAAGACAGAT reported_endpoint="PBM binding z-score" observed_measurement=4.01
seq_string=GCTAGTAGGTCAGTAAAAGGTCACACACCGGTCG reported_endpoint="PBM binding z-score" observed_measurement=7.29
seq_string=CGAACTAGGTCAGAGGACAGTGAAAGGCGACGTA reported_endpoint="PBM binding z-score" observed_measurement=7.68
seq_string=AGTCAAAGTTCATCAAGGTAACGTAAGATATGCT reported_endpoint="PBM binding z-score" observed_measurement=3.34
seq_string=CTATGTAGGTTAAGGGGGTCATTCAATTTGAAAG reported_endpoint="PBM binding z-score" observed_measurement=7.79
seq_string=AAATGTAGGTTAAGGGTCATTCAGGTTGGTTCGC reported_endpoint="PBM binding z-score" observed_measurement=8.07
seq_string=CGAACTAGGTCACCAGGACTGTGAAGAGGTTGGA reported_endpoint="PBM binding z-score" observed_measurement=8.71
seq_string=ACTAGAAGGCCAAGGGTCACTCAAGATTAGTCCG reported_endpoint="PBM binding z-score" observed_measurement=3.55
seq_string=CGAACTAGGTCAAAGGACAGCGAAAGGCGACGTA reported_endpoint="PBM binding z-score" observed_measurement=8.46
seq_string=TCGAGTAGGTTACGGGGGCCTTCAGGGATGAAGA reported_endpoint="PBM binding z-score" observed_measurement=4.68
seq_string=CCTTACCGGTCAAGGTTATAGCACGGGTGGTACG reported_endpoint="PBM binding z-score" observed_measurement=0.825
seq_string=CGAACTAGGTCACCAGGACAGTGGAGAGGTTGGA reported_endpoint="PBM binding z-score" observed_measurement=8.98
seq_string=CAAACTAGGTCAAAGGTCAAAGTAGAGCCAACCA reported_endpoint="PBM binding z-score" observed_measurement=9.26
seq_string=CCTACTGGGCGATTCAGAGGTCATTGATCATATG reported_endpoint="PBM binding z-score" observed_measurement=1.23
seq_string=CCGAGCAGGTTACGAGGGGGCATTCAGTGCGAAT reported_endpoint="PBM binding z-score" observed_measurement=2.54
seq_string=ATCGAAACGTCGACGAGGTGAGTATACACCGTTT reported_endpoint="PBM binding z-score" observed_measurement=0.572
seq_string=TCGAGTAGGTTACGGGGGTATTCAGGGATGAAGA reported_endpoint="PBM binding z-score" observed_measurement=5.38
seq_string=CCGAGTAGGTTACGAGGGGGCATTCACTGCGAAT reported_endpoint="PBM binding z-score" observed_measurement=4.25
seq_string=CTATGTAGGTTAAGGGGGTCACTCAGTTTGAAAG reported_endpoint="PBM binding z-score" observed_measurement=7.88
seq_string=CGAACTAGGTCAAAGGACAGTGACAGGCGACGTA reported_endpoint="PBM binding z-score" observed_measurement=8.4
seq_string=CATACTAGGTCAAAGGTCAAAGTCGAGCCAACCA reported_endpoint="PBM binding z-score" observed_measurement=8.62
seq_string=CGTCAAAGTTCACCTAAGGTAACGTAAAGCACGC reported_endpoint="PBM binding z-score" observed_measurement=2.63
seq_string=CGTCAAAGTTCAACTAATGTAACGTAAAGCACGC reported_endpoint="PBM binding z-score" observed_measurement=1.56
seq_string=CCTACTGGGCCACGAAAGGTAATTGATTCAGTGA reported_endpoint="PBM binding z-score" observed_measurement=5.07
seq_string=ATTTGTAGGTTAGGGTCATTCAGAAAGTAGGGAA reported_endpoint="PBM binding z-score" observed_measurement=5.62
seq_string=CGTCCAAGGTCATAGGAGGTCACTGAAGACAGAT reported_endpoint="PBM binding z-score" observed_measurement=5.27
seq_string=CGTCCAAGGTCATAGGAGGTCATTGAAGACAGAT reported_endpoint="PBM binding z-score" observed_measurement=4.68
seq_string=CCTACTGGGCCACGTAAGGTCATTGATTCAGTGA reported_endpoint="PBM binding z-score" observed_measurement=5.43
seq_string=CCTACTGGGCAAAAAAGGTCATTGATGCCGATAA reported_endpoint="PBM binding z-score" observed_measurement=1.62
seq_string=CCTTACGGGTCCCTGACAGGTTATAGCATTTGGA reported_endpoint="PBM binding z-score" observed_measurement=-0.544
seq_string=CTATGTAGGTTAAGGCGGTCATTCAGTTTGAAAG reported_endpoint="PBM binding z-score" observed_measurement=6.69
seq_string=CCGAGTAGGTTACGACGGGGCATTCAGTGCGAAT reported_endpoint="PBM binding z-score" observed_measurement=3.21

###

test system: PPARa:RXRa (NR concentration 270 nM, RXRa partner concentration 90 nM); experiment: PBM binding z-score (relative to random genomic background probes); higher = stronger binding; sequences stand for … in GC…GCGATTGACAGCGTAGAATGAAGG
Catalogue of sequences with associated PBM binding z-score
reported-endpoint: PBM binding z-score

seq_string=CAAAGTAGGTCAAGAGGTCAAAGTCCGCTTCCCG observed_measurement=6.74
seq_string=CGTCAAAGTTCAAGGTAATGTAACAGAAAGCAGC observed_measurement=4.74
seq_string=ACTCGGAGGGCAAAGGTCAGAGCTACGCCAGTGA observed_measurement=6.1
seq_string=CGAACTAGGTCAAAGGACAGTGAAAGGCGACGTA observed_measurement=5.72
seq_string=CAAACTAGGTCACGAAAGGTCAACGTCGAATGAC observed_measurement=6.81
seq_string=CCGAGTAGGTTATGAGGGGGCATTCAGTGCGAAT observed_measurement=3.29

###

tested on: RARb:RXRa (NR concentration 270 nM, RXRa partner concentration 90 nM); assay: PBM binding z-score (relative to random genomic background probes); higher = stronger binding; sequences stand for … in GC…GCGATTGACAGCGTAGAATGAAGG
reported-endpoint: PBM binding z-score

seq_string=CCTACTGGGCCAAGGTCATAGATCAGTCAAAGCA observed_measurement=3.23
seq_string=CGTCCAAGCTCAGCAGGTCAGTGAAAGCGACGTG observed_measurement=1.45
seq_string=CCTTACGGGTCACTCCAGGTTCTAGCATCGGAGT observed_measurement=3.63
seq_string=AATACAGGGTCACTAGGTCAGAGTAGGTACGAAT observed_measurement=4.67
seq_string=ATATGTAGGTTAGGGTCATTCACAAAGTAGGGAA observed_measurement=3.49
seq_string=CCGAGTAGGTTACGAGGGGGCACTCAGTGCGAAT observed_measurement=2.04
seq_string=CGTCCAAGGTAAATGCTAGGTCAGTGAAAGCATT observed_measurement=1.61
seq_string=CGAACTATGTCAAGGACAGTGAATCTCCGCACGC observed_measurement=0.88
seq_string=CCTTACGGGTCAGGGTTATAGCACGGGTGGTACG observed_measurement=3.41
seq_string=ATCGAAAGGTCGAAGGTGAGTCTACCCACCCGAA observed_measurement=3.74
seq_string=CAAACTAGGCCAAGGTCAAAGTCGGTTTGTGCCA observed_measurement=4.07
seq_string=CGTCCAAGGTCAAAGGTCAGTAAAGAGATGACGG observed_measurement=5.99
seq_string=ATATGTAGGTTAGGGGCATTCAGAAAGTAGGGAA observed_measurement=1.86
seq_string=TCTAGTTGGTCACGGGGGTCACACACGACGGGTA observed_measurement=4.07
seq_string=CCTCGGAGGACAACAGGAGGTCAAAGCTGCCAGA observed_measurement=3.25
seq_string=TTACCAAGGTGACCTGAGGTCGTTGATCCAACTC observed_measurement=2.5
seq_string=CGAGCTAGGTCAAAGGACAGTGAAAGGCGACGTA observed_measurement=4.04
seq_string=CTTTACGGGTCAAGGTTATAGCACGGGTGGTACG observed_measurement=4.17
seq_string=CAAACTAGGTCAAAGGTCAAGGTCGAGCCAACCA observed_measurement=5.76
seq_string=TCTCGGAGGACACGAAAGGTCAGTGCTCGACATC observed_measurement=4.13
seq_string=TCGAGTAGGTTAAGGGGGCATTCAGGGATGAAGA observed_measurement=2.47
seq_string=ATCTCTAGGTTAAAGTTCAGTGAATCCCGAGGAT observed_measurement=3.28
seq_string=CGTCCAAGGTCAGCAGGTGAGTGAAAGCGACGTG observed_measurement=4.87
seq_string=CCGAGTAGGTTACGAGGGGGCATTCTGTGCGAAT observed_measurement=2.01
seq_string=CTCGAAAGGTCGTGCTTAGGTGAGTATACCAAAC observed_measurement=3.72
seq_string=CTTACTGGGCCAAAGGTCATTGATTCCAATGCTC observed_measurement=4.62
seq_string=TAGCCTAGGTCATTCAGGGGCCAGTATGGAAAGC observed_measurement=4.11
seq_string=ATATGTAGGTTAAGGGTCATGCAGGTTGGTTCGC observed_measurement=3.73
seq_string=CTATGTAGGTTAAGAGGGTCATTCAGTTTGAAAG observed_measurement=2.63
seq_string=TCGAGTAGCTTACGGGGGCATTCAGGGATGAAGA observed_measurement=0.94
seq_string=ATATGTAGGTTACATCGGGGTCATTCAGGCTATG observed_measurement=3.25
seq_string=ATATGTAGGTTAGGGTCACTCAGAAAGTAGGGAA observed_measurement=3.8
seq_string=CGTACTAGGTCAAAGGACAGTGAAAGGCGACGTA observed_measurement=3.85
seq_string=TAGCCTAGGTCATAGGCCAGTATACCACGCGAAC observed_measurement=3.66
seq_string=TCGAGTAGGGTACGGGGGCATTCAGGGATGAAGA observed_measurement=2.37
seq_string=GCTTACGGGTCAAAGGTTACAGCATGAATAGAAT observed_measurement=4.7
seq_string=ATCGAAAGGTCGAAGGTGACTATACCCACCCGAA observed_measurement=3.79
seq_string=CCGAGTAGGTTCCGAGGGGGCATTCAGTGCGAAT observed_measurement=1.3
seq_string=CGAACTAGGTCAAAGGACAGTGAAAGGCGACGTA observed_measurement=3.99
seq_string=CGAACTAGGTAACCAGGACAGTGAAGAGGTTGGA observed_measurement=0.0285
seq_string=CGTCCAAGGTCATACGAGGTCAGTGAAGACAGAT observed_measurement=5.43
seq_string=GGAACGAGGGCAAAGGTGATAGCATCTGTCGACG observed_measurement=2.72
seq_string=CGAACTGGGTCACCAGGACAGTGAAGAGGTTGGA observed_measurement=3.73
seq_string=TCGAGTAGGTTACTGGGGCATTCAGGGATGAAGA observed_measurement=1.08
seq_string=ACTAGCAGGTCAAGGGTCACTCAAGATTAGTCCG observed_measurement=4.86
seq_string=CGAACTAGGTCAAAGGACCGTGAAAGGCGACGTA observed_measurement=3.69
seq_string=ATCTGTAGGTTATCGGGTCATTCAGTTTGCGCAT observed_measurement=2.71
seq_string=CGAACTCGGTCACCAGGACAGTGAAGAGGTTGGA observed_measurement=2.69
seq_string=AGTCAAAGTTCTTCTAGGTAACGTAAGATATGCT observed_measurement=0.948
seq_string=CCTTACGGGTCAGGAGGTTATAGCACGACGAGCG observed_measurement=3.63
seq_string=GATAAAGGGTCAGCTAGAGGCCAGAGTATGGAAA observed_measurement=5.21
